# assay-target: purified enkephalinase Al (Rattus norvegicus)
# Construct: the solubilised enzymes contained in the supernatant separated by DEAE-cellulose column chromatography; from tissue; host or cells: rat striatum, washed membrane pellet solubilised with Triton X-100, DEAE-cellulose then Sephacryl S.300
# Sequence (P07861 whole entry): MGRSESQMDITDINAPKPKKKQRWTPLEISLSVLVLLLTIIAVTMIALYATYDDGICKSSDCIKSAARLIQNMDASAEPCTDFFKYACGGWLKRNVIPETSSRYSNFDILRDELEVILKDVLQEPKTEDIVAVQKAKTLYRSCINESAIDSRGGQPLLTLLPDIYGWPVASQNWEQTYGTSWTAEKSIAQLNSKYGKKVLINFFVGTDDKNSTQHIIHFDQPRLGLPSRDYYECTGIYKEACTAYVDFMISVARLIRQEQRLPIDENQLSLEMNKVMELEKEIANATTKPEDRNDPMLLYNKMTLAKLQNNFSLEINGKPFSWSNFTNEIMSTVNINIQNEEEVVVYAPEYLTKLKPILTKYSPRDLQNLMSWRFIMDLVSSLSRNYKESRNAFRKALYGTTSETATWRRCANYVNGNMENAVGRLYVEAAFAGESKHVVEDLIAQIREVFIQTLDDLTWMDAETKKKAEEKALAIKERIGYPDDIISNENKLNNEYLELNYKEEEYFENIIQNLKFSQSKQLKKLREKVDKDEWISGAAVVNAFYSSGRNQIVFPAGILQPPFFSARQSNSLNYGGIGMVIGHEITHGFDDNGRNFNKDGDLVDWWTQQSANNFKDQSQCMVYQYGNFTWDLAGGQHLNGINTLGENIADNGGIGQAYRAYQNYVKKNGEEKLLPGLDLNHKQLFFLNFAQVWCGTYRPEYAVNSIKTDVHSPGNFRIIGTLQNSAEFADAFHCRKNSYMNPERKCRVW
# assay-summary: Enkephalinase-inhibiting activity in vitro (inhibition of 3H-TGG generation from 3H-leucine enkephalin)
# Assay type: biochemical
# assay-context: approximate, determined graphically; leucine enkephalin 5×10^-5 M; 30° C.; 30 min with enzyme; read-out: IC50 (concentration of test compound required for 50% inhibition of 3H-TGG generation)
Counter-ions that a name gives are not always drawn.
recorded-endpoint: IC50 (nM)

compound | measurement-units | measured-number
CC(C)C[C@H](NC(=O)C(Cc1ccccc1)P(=O)(O)O)C(=O)O (stereo partly drawn) [Compound No. 7, tri-lithium salt] | nM | 680

[P] CCOC(=O)[C@H](CC(C)C)NC(=O)C(Cc1ccccc1)CP(=O)(O)O (single isomer, unassigned) [compound 11]
[Q] CCOC(=O)[C@H](CC(C)C)NC(=O)C(Cc1ccccc1)P(=O)(O)O (stereo partly drawn) [compound 5]
From the recorded data, which exceeds the other in IC50: P or Q ? Answer = label.
Q
